# test.system: CD137 (Homo sapiens, UniProt Q07011)
# Sequence (Q07011 24-255): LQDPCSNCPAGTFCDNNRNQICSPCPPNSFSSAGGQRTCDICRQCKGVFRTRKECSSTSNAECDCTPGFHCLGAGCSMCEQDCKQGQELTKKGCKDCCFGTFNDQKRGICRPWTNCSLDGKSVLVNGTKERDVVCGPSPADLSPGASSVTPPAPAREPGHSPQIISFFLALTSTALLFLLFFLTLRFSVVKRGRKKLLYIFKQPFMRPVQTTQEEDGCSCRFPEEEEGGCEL
# measurement.notes: CD137 reporter assay (Promega, Jurkat cells) in co-culture with EphA2-expressing tumor cells (A549, PC3, HT29)
# Type: cell-based
# Set-up: host or cells: Jurkat reporter cells
# condition.parameters: CD137 reporter coculture assay with PC3 tumor cells; read-out: Emax (fold induction over background)
Starred links: 1 amine or outer side, 2 acyl side, 3 side chain; linkers in the order of their positions; H or OH if unused. Positions of bridges follow the written chain, without caps; N, C: chain ends. Non-standard residues stand in square brackets, D forms with d. Chains are numbered I, II in the order given. X1 = O=C(CCOCCOCCOCCN(CCOCCOCCOCCn1cc(CCC(=O)[*:2])nn1)CCOCCOCCOCCn1cc(CCC(=O)[*:3])nn1)[*:1]; X2 = O=C(CCSCCC(=O)[*:1])N1CN(C(=O)CC[*:2])CN(C(=O)CC[*:3])C1; TATA = O=C(CC[*:1])N1CN(C(=O)CC[*:2])CN(C(=O)CC[*:3])C1; d1Nal = N[C@H](Cc1cccc2ccccc12)C(=O)O; Hyp = O=C(O)[C@@H]1C[C@@H](O)CN1; hArg = N=C(N)NCCCC[C@H](N)C(=O)O; tBuAla = CC(C)(C)C[C@H](N)C(=O)O; Aad = N[C@@H](CCCC(=O)O)C(=O)O; Cba = N[C@@H](CC1CCC1)C(=O)O; Nle = CCCC[C@H](N)C(=O)O; Mpa = O=C(O)CCS
The label is Yes for fold induction below 50 and No for fold induction equal to or exceeding 50.

Solved entries (count: 4):
Qu. fold induction under 50? Item: I: A[hArg]DC[Hyp]LVNPLCL[Aad]P[dD]W[hArg]C-NH2 / II: Ac-C[tBuAla]PE[dK]PYCFADPY[Nle]CA-NH2 / III: Ac-C[tBuAla]PE[dK]PYCFADPY[Nle]CA-NH2 (linker I:4-I:11-I:18, II:1-II:8-II:15, III:1-III:8-III:15 via TATA; linker I:N-II:5-III:5 via X1) [BCY13286]
Ans. Yes

Qu. Quick one: I: [d1Nal][hArg]DC[Hyp][Cba]VNPLCLEP[dA]WTC[dA]-NH2 / II: Ac-C[tBuAla]PE[dK]PYCFADPY[Nle]CA-NH2 / III: Ac-C[tBuAla]PE[dK]PYCFADPY[Nle]CA-NH2 (linker I:4-I:11-I:18, II:1-II:8-II:15, III:1-III:8-III:15 via TATA; linker I:N-II:5-III:5 via X1) [BCY13278]
Ans. Yes

Qu. Try the substance I: Ac-A[hArg]DC[Hyp]LVNPLCKHP[dD]W[hArg]C-NH2 / II: Ac-C[tBuAla]PE[dK]PYCFADPY[Nle]CA-NH2 / III: Ac-C[tBuAla]PE[dK]PYCFADPY[Nle]CA-NH2 (linker I:4-I:11-I:18, II:1-II:8-II:15, III:1-III:8-III:15 via TATA; linker I:12-II:5-III:5 via X1) [BCY12976]
Ans. No

Qu. Similarly, I: A[hArg]DC[Hyp]LVNPLCLEP[dD]WTC-NH2 / II: [Mpa][tBuAla]PE[dK]PYCFADPY[Nle]C-NH2 / III: [tBuAla]PE[dK]PYCFADPY[Nle]C-NH2 (linker I:4-I:11-I:18, II:1-II:8-II:15 via TATA; linker I:N-II:5-III:4 via X1; linker III:N-III:7-III:14 via X2) [BCY13138] ?
Ans. Yes

Here's the next entry for you.
Qu. Say whether its fold induction is strictly beneath 50. Entry: I: [dA][dA]DC[Hyp]LVNPLCLEP[dD]WTC-NH2 / II: Ac-C[tBuAla]PE[dK]PYCFADPY[Nle]CA-NH2 / III: Ac-C[tBuAla]PE[dK]PYCFADPY[Nle]CA-NH2 (linker I:4-I:11-I:18, II:1-II:8-II:15, III:1-III:8-III:15 via TATA; linker I:N-II:5-III:5 via X1) [BCY13281]
Ans. Yes

###

# test.system: CD137 (Homo sapiens)
# measurement.notes: CD137 reporter assay (Promega, Jurkat cells) in co-culture with EphA2-expressing tumor cells (A549, PC3, HT29)
# Format: cell-based
# Design: host or cells: Jurkat reporter cells
# condition.parameters: CD137 reporter coculture assay with PC3 tumor cells; read-out: Emax (fold induction over background)
Starred links: 1 amine or outer side, 2 acyl side, 3 side chain; linkers in the order of their positions; H or OH if unused. Positions of bridges follow the written chain, without caps; N, C: chain ends. Non-standard residues stand in square brackets, D forms with d. Chains are numbered I, II in the order given. X1 = O=C(CCOCCOCCOCCN(CCOCCOCCOCCn1cc(CCC(=O)[*:2])nn1)CCOCCOCCOCCn1cc(CCC(=O)[*:3])nn1)[*:1]; TATA = O=C(CC[*:1])N1CN(C(=O)CC[*:2])CN(C(=O)CC[*:3])C1; Hyp = O=C(O)[C@@H]1C[C@@H](O)CN1; hArg = N=C(N)NCCCC[C@H](N)C(=O)O; tBuAla = CC(C)(C)C[C@H](N)C(=O)O; Cba = N[C@@H](CC1CCC1)C(=O)O; NMeA = CN[C@@H](C)C(=O)O; Nle = CCCC[C@H](N)C(=O)O
# maps each entry to its fold induction
Answer field: number only, no words.

Illustrative cases are given below, each with its answer.
Qu. What value of fold induction has been recorded for this entry: I: [dA][hArg]DC[Hyp][Cba]VNPLCLEP[dA]WTC[dA]-NH2 / II: Ac-C[tBuAla]PE[dK]PYCFADPY[Nle]CA-NH2 / III: Ac-C[tBuAla]PE[dK]PYCFADPY[Nle]CA-NH2 (linker I:4-I:11-I:18, II:1-II:8-II:15, III:1-III:8-III:15 via TATA; linker I:N-II:5-III:5 via X1) [BCY13277]
Ans. 51.1

Qu. One more substance: I: A[hArg]DC[Hyp]LVNPLCLEP[dD]WTC-NH2 / II: Ac-C[tBuAla]PE[dK]PYCFADPY[Nle]CA-NH2 / III: Ac-C[tBuAla]PE[dK]PYCFADPY[Nle]CA-NH2 (linker I:4-I:11-I:18, II:1-II:8-II:15, III:1-III:8-III:15 via TATA; linker I:N-II:5-III:5 via X1) [BCY13044]
Ans. 49.5

Qu. And the next one, I: Ac-A[hArg]DC[Hyp]LVNPLCLHP[dD]W[hArg]CK-NH2 / II: Ac-C[tBuAla]PE[dK]PYCFADPY[Nle]CA-NH2 / III: Ac-C[tBuAla]PE[dK]PYCFADPY[Nle]CA-NH2 (linker I:4-I:11-I:18, II:1-II:8-II:15, III:1-III:8-III:15 via TATA; linker I:19-II:5-III:5 via X1) [BCY12973] ?
Ans. 48.6

Could you now look at the following substance, please?
Qu. Returns the measured fold induction for the input substance. Input: I: [NMeA][hArg]DC[Hyp]LVNPLCLEP[dD]WTC-NH2 / II: Ac-C[tBuAla]PE[dK]PYCFADPY[Nle]CA-NH2 / III: Ac-C[tBuAla]PE[dK]PYCFADPY[Nle]CA-NH2 (linker I:4-I:11-I:18, II:1-II:8-II:15, III:1-III:8-III:15 via TATA; linker I:N-II:5-III:5 via X1) [BCY13276]
Ans. 50.5
